# assayed-target: T1, H3 HA1 subunit (A/Aichi/2/1968, HA1 subunit, Met-1-Arg 345) (Influenza A virus H3N2 A/Aichi/2/1968, UniProt P03437 17-345)
# T1 construct: range 1-345; also called H3N2 A/Aichi/2/1968 HA1 subunit
# assay-summary: ELISA; antigen coated 1 µg/ml; recombinant antibody
# Design: concentration or dose not given beside the values
Below, each entry is listed with its recorded OD 450 nm.
Could you give me the number in OD 450 nm? Just the number is fine.

Look at this binder and give its reported OD 450 nm. AT10-003 (antibody, V domains shown) VH: QVHLVQSGAEVRKPGASVKVSCKVSGYTLNELSIHWLRQAPGRGLEWMGSFDPEDGETIYAQKFQGRVTMTGDTSTDTAYLELTSLRSEDTALYYCARGWGAVTSPFDFWGQGTLVTVSS VL: DIVMTQSPLSLPVTPGEPASISCRSSQSLLHSNGHIYFDWYLQKPGQSPQLLIYLVSKRASGVPDRFSGSGSGTDFTLKISRVEAEDVGVYYCMQALETPFTFGPGTKVHIKR
1.28

Look at this binder and give its reported OD 450 nm. AT10-004 (antibody, V domains shown) VH: QVQLVQSGAEVRKPGASVKVSCKASGYTFTRHGISWVRQAPGQGLEWMGWISAYTGDTDYAQKFQGRVTMTTDTSTNTAYMELRSLRSDDAAVYYCARLRLQGEVVVPPSQSNWFDPWGQGTLVTVSS VL: EIVLTQSPATLSLYPGERATLSCRASQSVSRYLAWYQQKPGQAPRLLIYDASNRATGIPARFSGSGSGTDFTLTISSLEPEDFAVYYCQQRSNWLKITFGQGTRLEIKG
0.096

Look at this binder and give its reported OD 450 nm. AT10-001 (antibody, V domains shown) VH: EVQLLESGGGLVQPGGSLRLSCAASGFSFSTYAMSWVRQAPGKGLEWVSGISGSGESTYYADSVKGRFTVSRDNSKNTLYLQMNSLRAEDTAVYYCAKQGDHIAWLLRGINFDYWGQGVLVTVSS VL: EIVLTQSPGTLSLSPGERATLSCRASQSVSSSYLAWYQQKPGQAPRLLIYGASTRATGIPDRFSGRGSGTDFTLTISSLEPEDFAVYYCQNYGSPFLFTFGPGTKVDIKR
0.01

Others:
Look at this binder and give its reported OD 450 nm. AT10-002 (antibody, V domains shown) VH: QLQLQESGPRLVKPSETLSLTCSVSGVSISSSNYYWGWIRQPPGKGLEWIGTIYHSGSTYYNPSLKSRLIISVDTSKNQFYLQLTSLTAADSAVYYCATGGGFGWSQTYFGYWGQGTLVTASS VL: QSALTQPASVSGSPGQSITISCTGTSSDVGAYNYVSWYQHHPGKAPKLMIYDVTYRPSGVSTRFSGSKSGNTASLTISGLQAEDEADYYCSSQSRSSTLVIFGGGTKLTVLG
-0.006

Origin of values: patent US20150010566A1
